Kd: recorded values
# system.name: T1, recombinant protein containing hST2 extracellular domain with mouse antibody heavy chain Fc tag (hST2-ECD-mFc) (human)
# T1 construct: Used for SPR and for ELISA of chimeric and humanized antibodies; also called human ST2 antigen
# T1 chain: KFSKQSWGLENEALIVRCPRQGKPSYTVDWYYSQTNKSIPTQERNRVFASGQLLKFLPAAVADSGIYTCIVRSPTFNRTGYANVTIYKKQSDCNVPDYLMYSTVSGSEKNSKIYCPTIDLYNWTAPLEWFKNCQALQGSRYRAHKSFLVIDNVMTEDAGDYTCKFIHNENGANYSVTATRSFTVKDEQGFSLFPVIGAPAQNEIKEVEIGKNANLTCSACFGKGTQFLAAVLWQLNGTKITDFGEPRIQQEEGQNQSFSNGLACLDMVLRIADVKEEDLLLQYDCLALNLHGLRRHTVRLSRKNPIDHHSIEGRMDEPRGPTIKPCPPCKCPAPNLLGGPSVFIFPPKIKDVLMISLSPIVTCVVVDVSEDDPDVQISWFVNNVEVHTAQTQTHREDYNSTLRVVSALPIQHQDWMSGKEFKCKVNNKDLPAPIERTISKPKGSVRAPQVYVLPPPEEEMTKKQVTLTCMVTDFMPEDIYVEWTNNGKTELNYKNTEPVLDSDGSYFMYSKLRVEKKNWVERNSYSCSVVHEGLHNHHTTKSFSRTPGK
# test: SPR (Biacore T200), hST2-ECD-mFc captured by anti-mouse IgG on CM5, antibody as analyte, 1:1 model

Reference set (2 entries):
- Chimeric 17E2 (antibody, human IgG2, kappa, V domains shown, also called xi17E2) VH: QVQLQQSGAELVRPGASVTLSCKASGYTFTDYEMHWVKQTPVLGLEWIGAIDPETGDTAYNQKFKGKATLTADKSSSTAYMELSSLASEDSAVYYCIRVDSNYDYFDYWGQDTTLTVSS VL: DIVLTQSPPILSASPGEKVTMTCRASSSVSYMHWYQQKPGSSPKPWIYDTSNLASGVPARFSGSGSGTSYSLTISRVEAEDAATYYCQQWSSNPLTFGAGTKLELKR: 0.0541 nM
- Chimeric 8F4 (antibody, human IgG2, kappa, V domains shown, also called xi8F4) VH: QVQLQQSGAELVRPGASVTLSCKASGHIFTDYEMQWVKQTPVHGLEWIGAFDPETGDTAYNQKFKGKATLTADKSSSTAYMELSSLTSEDSAVYYCSGSTTDYYFAYWGQGTSLTVSS VL: DVVMTQTAFSNPVTLGTSASISCRSSKSLLHSNGIIYLYWYLQKPGQSPQLLIYQMSNLASGVPDRFSSSGSGTDFTLRISRVEAEDVGVYYCAQNLELPFTFGSGTKLEIKR: 0.0933 nM

// moving on: another record for Kd
Complete the entry with Kd for Chimeric 26A1 (antibody, human IgG2, kappa, V domains shown, also called xi26A1) VH: QVQLQQSGAELVRPGASVTLSCKASDYIFTDSEIHWVKQTLVHGLEWIGAIDPETGDTAYNQKFKGKATLTADKSSSTAYMELSSLTSEGSAVYYCSGSTTDCYFAYWGQGTTLTVSS VL: DIVMTQAAFSNPVTLGTSASISCRSSKSLLHSNGIIYLYWYLQKPGQSPQLLIYQMSNLASGVPDRFSSSGSGTDFTLRISRVEAEDVGVYYCAQNLELPFTFGSGTKLEIKR
0.0299 nM
